# Tested on: Enterococcus faecalis
# Assay Procedure: In vitro antibacterial activity against Enterococcus faecalis 29212A (E.f.1)
# Type: functional
Reported Metric: MIC (µg/mL)

| Structure String | Reported Metric | Relation Sign | Quantitative Result |
| --- | --- | --- | --- |
| CC(=O)NC[C@H]1CN(c2ccc(N3CC=C(c4oncc4C(N)=O)CC3)c(F)c2)C(=O)O1 | MIC | = | 1 |
| CC(=O)NC[C@H]1CN(c2ccc(N3CC=C(c4conc4Cl)CC3)c(F)c2)C(=O)O1 | MIC | = | 8 |
| CC(=O)NC[C@H]1CN(c2ccc(N3CC=C(c4conc4C#N)CC3)c(F)c2)C(=O)O1 | MIC | = | 2 |
| CCOC(=O)c1cnoc1C1=CCN(c2ccc(N3C[C@H](CNC(C)=O)OC3=O)cc2F)CC1 | MIC | = | 16 |
| CC(=O)NC[C@H]1CN(c2ccc(N3CC=C(c4oncc4C#N)CC3)c(F)c2)C(=O)O1 | MIC | = | 4 |
| CC(=O)NC[C@H]1CN(c2ccc(N3CC=C(c4oncc4Cl)CC3)c(F)c2)C(=O)O1 | MIC | = | 64 |
| CC(=O)NC[C@H]1CN(c2ccc(N3CC=C(c4oncc4C(=O)N(C)C)CC3)c(F)c2)C(=O)O1 | MIC | = | 8 |
| CC(=O)NC[C@H]1CN(c2ccc(N3CC=C(c4oncc4C(F)(F)F)CC3)c(F)c2)C(=O)O1 | MIC | > | 64 |
| CC(=O)NC[C@H]1CN(c2ccc(N3CC=C(c4oncc4C)CC3)c(F)c2)C(=O)O1 | MIC | = | 4 |

====

# Tested on: Staphylococcus epidermidis
# Assay Procedure: In vitro antibacterial activity against Staphylococcus epidermidis Q004 (S.e.1)
# Format: functional

| Structure String | Target Entity | Relation Sign | MIC (µg/mL) |
| --- | --- | --- | --- |
| CC(=O)NC[C@H]1CN(c2ccc(N3CC=C(c4oncc4C#N)CC3)c(F)c2)C(=O)O1 | Staphylococcus epidermidis | = | 1 |
| CC(=O)NC[C@H]1CN(c2ccc(N3CC=C(c4oncc4C)CC3)c(F)c2)C(=O)O1 | Staphylococcus epidermidis | = | 1 |
| CC(=O)NC[C@H]1CN(c2ccc(N3CC=C(c4oncc4C(F)(F)F)CC3)c(F)c2)C(=O)O1 | Staphylococcus epidermidis | > | 64 |
| CC(=O)NC[C@H]1CN(c2ccc(N3CC=C(c4oncc4C(N)=O)CC3)c(F)c2)C(=O)O1 | Staphylococcus epidermidis | = | 0.5 |
| CC(=O)NC[C@H]1CN(c2ccc(N3CC=C(c4conc4Cl)CC3)c(F)c2)C(=O)O1 | Staphylococcus epidermidis | = | 2 |
| CC(=O)NC[C@H]1CN(c2ccc(N3CC=C(c4oncc4Cl)CC3)c(F)c2)C(=O)O1 | Staphylococcus epidermidis | = | 8 |
| CC(=O)NC[C@H]1CN(c2ccc(N3CC=C(c4conc4C#N)CC3)c(F)c2)C(=O)O1 | Staphylococcus epidermidis | = | 0.5 |
| CC(=O)NC[C@H]1CN(c2ccc(N3CC=C(c4oncc4C(=O)N(C)C)CC3)c(F)c2)C(=O)O1 | Staphylococcus epidermidis | = | 2 |
| CC(=O)NC[C@H]1CN(c2ccc(N3CCOCC3)c(F)c2)C(=O)O1 | Staphylococcus epidermidis | = | 0.5 |
| CCOC(=O)c1cnoc1C1=CCN(c2ccc(N3C[C@H](CNC(C)=O)OC3=O)cc2F)CC1 | Staphylococcus epidermidis | = | 4 |
